Biological target: recombinant human cGAS (aa147-522) (Homo sapiens)
Construct: recombinant human cGAS (aa147-522); His6-SUMO (cleaved yes); made in house; host or cells: E. coli BL21/pLys
Experiment: In vitro inhibition assay of cGAS activity (ATP consumption, KinaseGlo Max)
Type: biochemical
Conditions: Table 2, read-out: cGAS Inhibition Results IC50
Method: Expression and Purification of Recombinant cGAS Protein: cDNA encoding full-length or amino acids […] of human cGAS was inserted into a modified pET28a vector containing an in-frame His6-SUMO tag. The E. coli strain BL21/pLys harboring the plasmid was induced with 0.5 mM IPTG at 18° C. overnight. His6-SUMO tag was removed by a SUMO protease digestion following purification of the His6-SUMO-cGAS as described previously (Sun et al, 2013, Science 339, 786). […]
READOUT TYPE: IC50

Any idea what its IC50 is? The compound is COC(=O)C1CCCN(c2cc(-n3ccnc3)c3ccc(Cl)cc3n2)C1 (centres unmarked)
2 to 30 µM

Any idea what its IC50 is? The compound is `O=C(O)CCc1cc(-c2cn[nH]c2)c2ccc(Cl)c(Cl)c2n1`
< 2 µM

Any idea what its IC50 is? The compound is `Cc1cc(N2CCNC(=O)CC2)c2ccc(Cl)c(Cl)c2n1`
> 30 µM

Any idea what its IC50 is? The compound is `Clc1ccc2c(-c3ccn[nH]3)cc(-c3ccccc3)nc2c1`
> 30 µM

Any idea what its IC50 is? The compound is `CN(CCNS(=O)(=O)c1ccccc1C(F)(F)F)c1cc(-n2ccnc2)c2ccc(Cl)cc2n1`
> 30 µM

---

Give pIC50 for every item shown.
target: recombinant human cGAS (aa147-522) (Homo sapiens, UniProt Q8N884); construct: recombinant human cGAS (aa147-522); His6-SUMO (cleaved yes); made in house; host or cells: E. coli BL21/pLys; experiment: In vitro inhibition assay of cGAS activity (ATP consumption, KinaseGlo Max); assay type: biochemical; conditions: Table 2, read-out: cGAS Inhibition Results IC50
Sequence (Q8N884 147-522): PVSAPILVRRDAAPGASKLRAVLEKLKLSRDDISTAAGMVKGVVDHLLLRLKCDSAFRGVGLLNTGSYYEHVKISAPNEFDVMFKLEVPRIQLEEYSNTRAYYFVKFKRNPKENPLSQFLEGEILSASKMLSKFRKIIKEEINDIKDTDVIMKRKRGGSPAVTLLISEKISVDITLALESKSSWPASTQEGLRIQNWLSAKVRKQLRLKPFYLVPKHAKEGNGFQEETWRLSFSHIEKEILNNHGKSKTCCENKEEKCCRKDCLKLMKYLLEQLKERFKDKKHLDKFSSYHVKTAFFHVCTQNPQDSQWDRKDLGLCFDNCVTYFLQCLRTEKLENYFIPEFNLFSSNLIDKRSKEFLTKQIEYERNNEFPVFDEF
pIC50: −log10 of the molar value.

Write down the reported pIC50 of NS(=O)(=O)C1CCCN(c2cc(-n3ccnc3)c3ccc(Cl)c(Cl)c3n2)C1 (centres unmarked) , test system: recombinant human cGAS (aa147-522) (Homo sapiens, UniProt Q8N884).
> 5.70

Write down the reported pIC50 of `Cc1cc(NCC(=O)O)c2ccc(Cl)c(Cl)c2n1` , test system: recombinant human cGAS (aa147-522) (Homo sapiens, UniProt Q8N884).
4.52 to 5.70

Write down the reported pIC50 of O=C(O)C1CCN(C(=O)C[C@@H]2CCCN2c2cc(-n3ccnc3)c3ccc(Cl)c(Cl)c3n2)C1 (some centres unmarked) , test system: recombinant human cGAS (aa147-522) (Homo sapiens, UniProt Q8N884).
> 5.70

Write down the reported pIC50 of O=S(=O)(O)C1CCCN(c2cc(-n3ccnc3)c3ccc(Cl)c(Cl)c3n2)C1 (centres unmarked) , test system: recombinant human cGAS (aa147-522) (Homo sapiens, UniProt Q8N884).
> 5.70

Write down the reported pIC50 of `O=C(O)c1cc(O)cc(-c2cc(-n3ccnc3)c3ccc(Cl)cc3n2)c1` , test system: recombinant human cGAS (aa147-522) (Homo sapiens, UniProt Q8N884).
> 5.70

Write down the reported pIC50 of O=C(O)C1CN(c2cc(-c3cn[nH]c3)c3ccc(Cl)c(Cl)c3n2)CCO1 (centres unmarked) , test system: recombinant human cGAS (aa147-522) (Homo sapiens, UniProt Q8N884).
> 5.70

Write down the reported pIC50 of Cc1cc(NC2CCNC2=O)c2ccc(Cl)c(Cl)c2n1 (centres unmarked) , test system: recombinant human cGAS (aa147-522) (Homo sapiens, UniProt Q8N884).
< 4.52

Write down the reported pIC50 of `O=C(O)Cc1ccccc1-c1cc(-n2ccnc2)c2ccc(Cl)cc2n1` , test system: recombinant human cGAS (aa147-522) (Homo sapiens, UniProt Q8N884).
< 4.52

Write down the reported pIC50 of `CCOc1cc(-n2ccnc2)c2ccc(Cl)cc2n1` , test system: recombinant human cGAS (aa147-522) (Homo sapiens, UniProt Q8N884).
< 4.52

Write down the reported pIC50 of `NS(=O)(=O)CCNc1cc(-c2cn[nH]c2)c2cc(Cl)c(Cl)cc2n1` , test system: recombinant human cGAS (aa147-522) (Homo sapiens, UniProt Q8N884).
> 5.70

Write down the reported pIC50 of `O=C(O)c1cc(OCCO)cc(-c2cc(-n3ccnc3)c3ccc(Cl)cc3n2)c1` , test system: recombinant human cGAS (aa147-522) (Homo sapiens, UniProt Q8N884).
> 5.70

Write down the reported pIC50 of `Brc1ccc2c(-n3ccnc3)ccnc2c1` , test system: recombinant human cGAS (aa147-522) (Homo sapiens, UniProt Q8N884).
4.52 to 5.70

Write down the reported pIC50 of `CN(CC(=O)O)c1cc(-n2ccnc2)c2ccc(Cl)cc2n1` , test system: recombinant human cGAS (aa147-522) (Homo sapiens, UniProt Q8N884).
> 5.70

Write down the reported pIC50 of `C[C@H](CS(N)(=O)=O)Nc1cc(-n2ccnc2)c2ccc(Cl)c(Cl)c2n1` , test system: recombinant human cGAS (aa147-522) (Homo sapiens, UniProt Q8N884).
> 5.70

Write down the reported pIC50 of `C[C@@H](Nc1cc(-c2cn[nH]c2)c2ccc(Cl)c(Cl)c2n1)C(=O)O` , test system: recombinant human cGAS (aa147-522) (Homo sapiens, UniProt Q8N884).
4.52 to 5.70

Write down the reported pIC50 of `Clc1ccc2c(-n3ccnc3)cc(OCCN3CCOCC3)nc2c1` , test system: recombinant human cGAS (aa147-522) (Homo sapiens, UniProt Q8N884).
< 4.52

Write down the reported pIC50 of `CN(CCNS(=O)(=O)c1ccc(C(F)(F)F)cc1)c1cc(-n2ccnc2)c2ccc(Cl)cc2n1` , test system: recombinant human cGAS (aa147-522) (Homo sapiens, UniProt Q8N884).
< 4.52

Write down the reported pIC50 of `Clc1ccc2c(-n3ccnc3)cc(OCCCN3CCOCC3)nc2c1` , test system: recombinant human cGAS (aa147-522) (Homo sapiens, UniProt Q8N884).
< 4.52

Write down the reported pIC50 of `CN(CCC(=O)O)c1cc(-c2cn[nH]c2)c2ccc(Cl)c(Cl)c2n1` , test system: recombinant human cGAS (aa147-522) (Homo sapiens, UniProt Q8N884).
> 5.70

Write down the reported pIC50 of OCC1CN(c2cc(-n3ccnc3)c3ccc(Cl)cc3n2)CCCO1 (centres unmarked) , test system: recombinant human cGAS (aa147-522) (Homo sapiens, UniProt Q8N884).
4.52 to 5.70

Write down the reported pIC50 of `COc1ccc(-c2cc(-n3ccnc3)c3ccc(Cl)cc3n2)cc1` , test system: recombinant human cGAS (aa147-522) (Homo sapiens, UniProt Q8N884).
4.52 to 5.70

Write down the reported pIC50 of NS(=O)(=O)C1CCN(c2cc(-n3ccnc3)c3ccc(Cl)c(Cl)c3n2)C1 (centres unmarked) , test system: recombinant human cGAS (aa147-522) (Homo sapiens, UniProt Q8N884).
> 5.70

Write down the reported pIC50 of `O=C(O)CCN(CC(=O)O)c1cc(-n2ccnc2)c2ccc(Cl)c(Cl)c2n1` , test system: recombinant human cGAS (aa147-522) (Homo sapiens, UniProt Q8N884).
> 5.70

Write down the reported pIC50 of OCC1CCCN(c2cc(-n3ccnc3)c3ccc(Cl)cc3n2)C1 (centres unmarked) , test system: recombinant human cGAS (aa147-522) (Homo sapiens, UniProt Q8N884).
4.52 to 5.70

Write down the reported pIC50 of `COc1c(Br)ccc2c(-n3ccnc3)cc(-c3ccccc3)nc12` , test system: recombinant human cGAS (aa147-522) (Homo sapiens, UniProt Q8N884).
4.52 to 5.70

Write down the reported pIC50 of `CC(C)[C@H](CC(=O)O)Nc1cc(-n2ccnc2)c2ccc(Cl)c(Cl)c2n1` , test system: recombinant human cGAS (aa147-522) (Homo sapiens, UniProt Q8N884).
4.52 to 5.70

Write down the reported pIC50 of CS(=O)(=O)CCC(Nc1cc(-n2ccnc2)c2ccc(Cl)c(Cl)c2n1)C(=O)O (centres unmarked) , test system: recombinant human cGAS (aa147-522) (Homo sapiens, UniProt Q8N884).
> 5.70

Write down the reported pIC50 of `Clc1ccc2c(-n3ccnc3)cc(-c3ccccc3)nc2c1` , test system: recombinant human cGAS (aa147-522) (Homo sapiens, UniProt Q8N884).
4.52 to 5.70

Write down the reported pIC50 of `Brc1ccc2c(-n3ccnn3)ccnc2c1` , test system: recombinant human cGAS (aa147-522) (Homo sapiens, UniProt Q8N884).
< 4.52

Write down the reported pIC50 of `O=C(O)CN(CC(=O)O)c1cc(-n2ccnc2)c2ccc(Cl)c(Cl)c2n1` , test system: recombinant human cGAS (aa147-522) (Homo sapiens, UniProt Q8N884).
> 5.70

Write down the reported pIC50 of NS(=O)(=O)OCC1CCCN(c2cc(-n3ccnc3)c3ccc(Cl)c(Cl)c3n2)C1 (centres unmarked) , test system: recombinant human cGAS (aa147-522) (Homo sapiens, UniProt Q8N884).
> 5.70

Write down the reported pIC50 of `CN(C)C(=O)CCN(C)c1cc(-c2cn[nH]c2)c2ccc(Cl)c(Cl)c2n1` , test system: recombinant human cGAS (aa147-522) (Homo sapiens, UniProt Q8N884).
> 5.70
